target-under-test: human DPP1 enzyme (Homo sapiens, UniProt P53634)
Sequence (P53634 25-463): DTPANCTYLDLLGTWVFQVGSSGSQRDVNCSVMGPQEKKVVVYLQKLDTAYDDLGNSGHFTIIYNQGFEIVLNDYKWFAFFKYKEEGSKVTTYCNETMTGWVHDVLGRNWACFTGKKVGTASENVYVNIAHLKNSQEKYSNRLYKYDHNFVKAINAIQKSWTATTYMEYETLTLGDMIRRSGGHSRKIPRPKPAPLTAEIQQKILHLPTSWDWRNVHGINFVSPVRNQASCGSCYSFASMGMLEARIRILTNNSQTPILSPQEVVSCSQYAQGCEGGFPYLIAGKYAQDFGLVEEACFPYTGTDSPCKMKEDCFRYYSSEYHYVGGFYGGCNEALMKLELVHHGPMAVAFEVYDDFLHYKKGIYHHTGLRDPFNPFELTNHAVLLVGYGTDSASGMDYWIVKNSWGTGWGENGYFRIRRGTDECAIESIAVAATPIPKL
assay-method-text: Human DPP1 Enzyme Single-Point Percent Inhibition Testing (HL-60 lysate)
Format: biochemical
Set-up: A crude lysate of HL-60 cells (ATCC; Manassas, VA) was used as a source of human DPP1 enzyme; host or cells: HL-60 cells (crude lysate)
experimental-setup: final compound concentration of 10 nM, 400 μM H-Gly-Arg-AMC, n = 1
quantity-measured: inhibition at 0.01 µM

Worked examples, 5 compounds total:
CO[C@H]1CCO[C@H](C(=O)N[C@H](C#N)Cc2ccc(-c3ccc(S(=O)(=O)N4CCC4)cc3)cc2)CNC1 [Compound F29]; ≤ 40%
CO[C@H]1CCO[C@H](C(=O)N[C@H](C#N)Cc2ccc(-c3ccc4c(c3)C3(CCN(C)C3)OC4=O)cc2F)CNC1 (stereo partly shown) [Compound F27]; ≥ 66.7%
Cc1nc(C)c2cc(-c3ccc(C[C@@H](C#N)NC(=O)[C@@H]4CNCCCCO4)cc3)cn2c1C [Compound A138]; ≤ 40%
CN1CC2(C1)OC(=O)c1ccc(-c3ccc(C[C@@H](C#N)NC(=O)[C@@H]4CNCCCCO4)cc3)cc12 [Compound 37]; ≤ 40%
CO[C@@H]1CCNC[C@@H](C(=O)N[C@H](C#N)Cc2ccc(-c3cnc4c(n3)CCCC4)cc2)OC1 [Compound A84]; 40 to 66.7%

Your task in this section: give inhibition at 0.01 µM for each listed record.
1. N#C[C@H](Cc1ccc(-c2ccc3c(c2)C2(CCN(C4CCC4)CC2)OC3)cc1F)NC(=O)[C@@H]1CNCCCCO1 [Compound 44]
2. COC1CNC[C@@H](C(=O)N[C@H](C#N)Cc2ccc(-c3ccc4cnn(C5CCN(C)CC5)c4c3)cc2F)OC1 (stereo partly shown) [Compound H10]

Result:
1. 40 to 66.7%
2. ≥ 66.7%

---

target-under-test: human DPP1 enzyme (Homo sapiens, UniProt P53634)
assay-method-text: Human DPP1 Enzyme Single-Point Percent Inhibition Testing (HL-60 lysate)
Assay type: biochemical
Design: A crude lysate of HL-60 cells (ATCC; Manassas, VA) was used as a source of human DPP1 enzyme; host or cells: HL-60 cells (crude lysate)
experimental-setup: final compound concentration of 10 nM, 400 μM H-Gly-Arg-AMC, n = 1
quantity-measured: inhibition at 0.01 µM

Study these solved cases before continuing.
Cn1ncc2ccc(-c3ccc(C[C@@H](C#N)NC(=O)[C@@H]4CNCCCCO4)c(F)c3)cc21 [Compound H37]; 40 to 66.7%
CN1CCC(N2CC[C@]3(COCc4ccc(-c5ccc(C[C@@H](C#N)NC(=O)[C@@H]6CNCCCO6)cc5)cc43)C2)CC1 [Compound I8]; ≥ 66.7%
C[C@@H]1NC[C@@H](C(=O)N[C@H](C#N)Cc2ccc(-c3ccc4cnn(C)c4c3)cc2F)OC[C@@H]1O [Compound H31]; 40 to 66.7%
CCCN1CCC2(CC1)SCCc1ccc(-c3ccc(C[C@@H](C#N)NC(=O)[C@@H]4CNCCCO4)cc3)cc12 [Compound I3]; ≥ 66.7%

Dear reader, for each entry below, please note its inhibition at 0.01 µM.
1. CN1CC2(C1)OC(=O)c1ccc(-c3ccc(C[C@@H](C#N)NC(=O)[C@@H]4CNCCCCO4)c(F)c3)cc12 [Compound 42]
2. CO[C@@H]1CCNC[C@@H](C(=O)N[C@H](C#N)Cc2ccc(-c3ccc4c(c3)C3(CCN(C)C3)OC4=O)cc2)OC1 (some centres unmarked) [Compound F8]

Result:
1: 40 to 66.7%; 2: ≥ 66.7%

For each of the molecules below, state inhibition at 0.01 µM.
1. CCN1C(=O)Cc2ccc(-c3ccc(C[C@@H](C#N)NC(=O)[C@@H]4CNCC(OC)CO4)cc3)cc21 (some centres unmarked) [Compound G3]
2. CO[C@@H]1CCNC[C@@H](C(=O)N[C@H](C#N)Cc2ccc(-c3ccc(CN4CCN(C)CC4)cc3)cc2)OC1 [Compound F10]
3. N#C[C@H](Cc1cc2c(cc1F)-c1cc3c(cc1CO2)COC31CCN(C2COC2)CC1)NC(=O)[C@@H]1CNCCCCO1 [Compound C32]
4. Cc1cn2cc(-c3ccc(C[C@@H](C#N)NC(=O)[C@@H]4CNCCCO4)c(F)c3)cc2c(C)n1 [Compound A118]
5. CN1CCCC2(C1)C(=O)N(C)c1ccc(-c3ccc(C[C@@H](C#N)NC(=O)[C@@H]4CNCCCO4)cc3)cc12 (some centres unmarked) [Compound 18]

Result:
1: ≥ 66.7%; 2: ≥ 66.7%; 3: ≥ 66.7%; 4: ≤ 40%; 5: ≤ 40%

State the recorded inhibition at 0.01 µM for every item in the following list.
1. CO[C@H]1CCO[C@H](C(=O)N[C@H](C#N)Cc2ccc(-c3ccc4c(c3)C3(CN(C)C3)OC4=O)cc2F)CNC1 [Compound F26]
2. CO[C@H]1CCO[C@H](C(=O)N[C@H](C#N)Cc2ccc(-c3ccc4c(c3)C3(CCCN(C)C3)C(=O)N4C)cc2F)CNC1 (some centres unmarked) [Compound F25]

Result:
["≥ 66.7%", "≥ 66.7%"]

Ask: Recall the recorded inhibition at 0.01 µM for CO[C@@H]1CCNC[C@@H](C(=O)N[C@H](C#N)Cc2ccc(-c3ccc4c(c3)C3(CCCN(C)C3)C(=O)N4C)cc2F)OC1 (some centres unmarked) [Compound F12] with human DPP1 enzyme (Homo sapiens, UniProt P53634) and state it.
Result: ≥ 66.7%
